- Tested on: ZIKV replicon
- PROCEDURE_DETAILS: ZIKV replication inhibition assay (NanoLuc replicon in Vero cells)
- MEASUREMENT_SETUP: Zika virus, Vero, 72 h, read-out: ZIKA Cell_Nanoluc, Vero cells with stable ZIKV replicon, 72 h, Nano-Glo readout
pEC50: −log10 of the molar value.
Listing: pEC50 of selected molecules

// known answers, use as guide
Prompt: For the molecule shown here, O=C([N-]c1c[n+](Cc2ccccn2)no1)Nc1cc(NC(=O)C2CCn3cncc3C2)cc(C(F)(F)F)c1 (centres unmarked) , give the reported pEC50.
Completion: < 4.70

Prompt: For the molecule shown here, "O=C(Cc1cccc2cn[nH]c12)Nc1cc(NC(=O)[N-]c2c[n+](Cc3ccccn3)no2)cc(C(F)(F)F)c1" , give the reported pEC50.
Completion: < 4.70

Prompt: For the molecule shown here, "CN1CCC([n+]2cc([N-]C(=O)Nc3cc(NC(=O)Cc4ccccc4)cc(C(F)(F)F)c3)on2)CC1" , give the reported pEC50.
Completion: 4.70 to 6.00

Prompt: For the molecule shown here, "Cc1nn(C)c(C)c1-c1ccc(C[n+]2cc([N-]C(=O)Nc3ccnc(C(F)(F)F)c3)on2)cc1" , give the reported pEC50.
Completion: > 7.00

Prompt: For the molecule shown here, "COc1ccc(CC(=O)Nc2cc(NC(=O)[N-]c3c[n+](Cc4ccc(-c5cnc(OC)nc5C)cc4)no3)cc(C(F)(F)F)c2)cc1" , give the reported pEC50.
Completion: 4.70 to 6.00

Prompt: For the molecule shown here, O=C(Cc1ccccc1)Nc1cc(NC(=O)[N-]c2c[n+](CC3CNCCCO3)no2)cc(C(F)(F)F)c1 (centres unmarked) , give the reported pEC50.
Completion: 4.70 to 6.00

Continuing:
Prompt: For the molecule shown here, "NCc1ccc(C[n+]2cc([N-]C(=O)Nc3cc(NC(=O)Cc4ccccc4)cc(C(F)(F)F)c3)on2)cc1" , give the reported pEC50.
Completion: 4.70 to 6.00

* * *

Listing: pEC50 of selected compounds
- Test system: ZIKV replicon
- PROCEDURE_DETAILS: ZIKV replication inhibition assay (NanoLuc replicon in Vero cells)
- MEASUREMENT_SETUP: Zika virus, Vero, 72 h, read-out: ZIKA Cell_Nanoluc, Vero cells with stable ZIKV replicon, 72 h, Nano-Glo readout
pEC50: −log10 of the molar value.

// known answers, use as guide
Prompt: Give ZIKV replicon pEC50 for COC(=O)c1ccc(C[n+]2cc([N-]C(=O)Nc3cc(NC(=O)Cc4ccccc4)cc(C(F)(F)F)c3)on2)cc1 [Example 98]
Completion: 4.70 to 6.00

Prompt: Give ZIKV replicon pEC50 for COc1ncc(-c2ccc(C[n+]3cc([N-]C(=O)Nc4cc(N)cc(C(F)(F)F)c4)on3)cc2)c(C)n1 [Example 3]
Completion: 6.00 to 7.00

Prompt: Give ZIKV replicon pEC50 for CN1CCCC(C[n+]2cc([N-]C(=O)Nc3cc(NC(=O)Cc4ccccc4)cc(C(F)(F)F)c3)on2)C1 (stereo not shown) [Example 117]
Completion: 4.70 to 6.00

Prompt: Give ZIKV replicon pEC50 for O=C(Cc1ccccc1)Nc1cc(NC(=O)[N-]c2c[n+](CC3CCCCN3)no2)cc(C(F)(F)F)c1 (stereo not shown) [Example 125]
Completion: 4.70 to 6.00

Prompt: Give ZIKV replicon pEC50 for O=C(Cc1ccc(=O)[nH]c1)Nc1cc(NC(=O)[N-]c2c[n+](Cc3ccccn3)no2)cc(C(F)(F)F)c1 [Example 123]
Completion: < 4.70

Prompt: Give ZIKV replicon pEC50 for O=C(Cc1ccccc1)Nc1cc(NC(=O)[N-]c2c[n+](Cc3ccc(CCO)cc3)no2)cc(C(F)(F)F)c1 [Example 111]
Completion: 6.00 to 7.00

Continuing:
Prompt: Give ZIKV replicon pEC50 for Cc1ccnc(C)c1-c1ccc(C[n+]2cc([N-]C(=O)Nc3ccnc(C(F)(F)F)c3)on2)cc1 [Example 263]
Completion: > 7.00

* * *

- Test system: ZIKV replicon
- PROCEDURE_DETAILS: ZIKV replication inhibition assay (NanoLuc replicon in Vero cells)
- MEASUREMENT_SETUP: Zika virus, Vero, 72 h, read-out: ZIKA Cell_Nanoluc, Vero cells with stable ZIKV replicon, 72 h, Nano-Glo readout
pEC50: −log10 of the molar value.
MEASURED_METRIC: pEC50

// known answers, use as guide
Prompt: For the molecule shown here, CC(=O)Nc1ccc(NC(=O)[N-]c2c[n+](Cc3ccc(-c4c(C)ncnc4C)cc3)no2)cc1C(F)(F)F [Example 264] , give the reported pEC50.
Completion: > 7.00

Prompt: For the molecule shown here, Cc1cn(C2COC2)nc1-c1ccc(C[n+]2cc([N-]C(=O)Nc3ccnc(C(F)(F)F)c3)on2)cc1 [Example 250] , give the reported pEC50.
Completion: 6.00 to 7.00

Prompt: For the molecule shown here, NC1C2COCC1CC([n+]1cc([N-]C(=O)Nc3cc(NC(=O)Cc4ccccc4)cc(C(F)(F)F)c3)on1)C2 (stereo not shown) [Example 112] , give the reported pEC50.
Completion: < 4.70

--- query ---
Prompt: For the molecule shown here, Cc1ncnc(C)c1C1=CCC(C[n+]2cc([N-]C(=O)Nc3ccnc(C(F)(F)F)c3)on2)CC1 (stereo not shown) [Example 216] , give the reported pEC50.
Completion: 4.70 to 6.00

* * *

pIC50: −log10 of the molar value.
What follows is a collection of pIC50 values obtained with West Nile Virus (WNV) NS2B-NS3 protease (West Nile virus).

// known answers, use as guide
Prompt: Give West Nile Virus (WNV) NS2B-NS3 protease (West Nile virus) pIC50 for Cc1ccccc1CC(=O)Nc1cc(NC(=O)[N-]c2c[n+]([C@@H]3CCC[C@@H](C(N)=O)C3)no2)cc(C(F)(F)F)c1 [Example 235]
Completion: > 7.00

Prompt: Give West Nile Virus (WNV) NS2B-NS3 protease (West Nile virus) pIC50 for CN(C)C[C@H]1CC[C@H]([n+]2cc([N-]C(=O)Nc3cc(NC(=O)Cc4cccc(F)c4F)cc(C(F)(F)F)c3)on2)CC1 [Example 169]
Completion: > 7.00

Prompt: Give West Nile Virus (WNV) NS2B-NS3 protease (West Nile virus) pIC50 for Cc1nn(C)c(C)c1-c1ccc(C[n+]2cc([N-]C(=O)Nc3ccnc(C(F)(F)F)c3)on2)cc1 [Example 268]
Completion: > 7.00

--- query ---
Prompt: Give West Nile Virus (WNV) NS2B-NS3 protease (West Nile virus) pIC50 for CN(C)C[C@H]1CC[C@H]([n+]2cc([N-]C(=O)Nc3cc(NC(=O)C4CCCc5ccccc54)cc(C(F)(F)F)c3)on2)CC1 (stereo partly shown) [Example 177]
Completion: 6.00 to 7.00

* * *

Listing: IC50 of selected molecules
- ASSAY_SYSTEM: West Nile Virus (WNV) NS2B-NS3 protease (West Nile virus, UniProt Q9Q6P4)
- Sequence (Q9Q6P4 1423-1470): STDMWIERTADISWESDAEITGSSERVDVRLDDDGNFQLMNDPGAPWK
- Sequence (Q9Q6P4 1506-1689): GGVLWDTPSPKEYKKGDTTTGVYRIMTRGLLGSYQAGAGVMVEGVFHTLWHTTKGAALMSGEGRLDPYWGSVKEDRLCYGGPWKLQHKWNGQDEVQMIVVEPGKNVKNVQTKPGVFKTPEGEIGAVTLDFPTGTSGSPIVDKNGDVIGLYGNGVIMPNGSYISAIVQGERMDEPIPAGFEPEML

// known answers, use as guide
Prompt: For the molecule shown here, "Cc1ccccc1CC(=O)Nc1cc(NC(=O)[N-]c2c[n+](C[C@@H]3CCCC[C@H]3O)no2)cc(C(F)(F)F)c1" , give the reported IC50.
Completion: 100 to 1000 nM

Prompt: For the molecule shown here, "Cc1ncnc(C)c1-c1ccc(C[n+]2cc([N-]C(=O)Nc3ccnc(C(C)(C)C)c3)on2)cc1" , give the reported IC50.
Completion: < 100 nM

Prompt: For the molecule shown here, Cc1ccccc1CC(=O)Nc1cc(NC(=O)[N-]c2c[n+]([C@@H]3CCCC(CO)C3)no2)cc(C(F)(F)F)c1 (some centres unmarked) , give the reported IC50.
Completion: < 100 nM

Prompt: For the molecule shown here, "Cc1ccccc1CC(=O)Nc1cc(NC(=O)[N-]c2c[n+]([C@H]3CC[C@H](C(=O)O)CC3)no2)cc(C(F)(F)F)c1" , give the reported IC50.
Completion: 100 to 1000 nM

Continuing:
Prompt: For the molecule shown here, "Cc1ccccc1CC(=O)Nc1cc(NC(=O)[N-]c2c[n+]([C@H]3CC[C@H](N(C)C)CC3)no2)cc(C(F)(F)F)c1" , give the reported IC50.
Completion: < 100 nM

Prompt: For the molecule shown here, "CN(C)[C@H]1CCC[C@@H]([n+]2cc([N-]C(=O)Nc3ccnc(C(F)(F)F)c3)on2)C1" , give the reported IC50.
Completion: 100 to 1000 nM

* * *

- System: ZIKV replicon
- PROCEDURE_DETAILS: ZIKV replication inhibition assay (NanoLuc replicon in Vero cells)
- MEASUREMENT_SETUP: Zika virus, Vero, 72 h, read-out: ZIKA Cell_Nanoluc, Vero cells with stable ZIKV replicon, 72 h, Nano-Glo readout
MEASURED_METRIC: EC50

// known answers, use as guide
Prompt: For the compound shown here, Cc1ccccc1CC(=O)Nc1cc(NC(=O)[N-]c2c[n+]([C@@H]3CCC[C@H](C(=O)N(C)C)C3)no2)cc(C(F)(F)F)c1 (racemic) [Example 253] , give the reported EC50.
Completion: 1 to 20 µM

Prompt: For the compound shown here, Cc1ccccc1CC(=O)Nc1cc(NC(=O)[N-]c2c[n+](C[C@H]3CCCC[C@H]3O)no2)cc(C(F)(F)F)c1 [Example 217] , give the reported EC50.
Completion: < 0.1 µM

Prompt: For the compound shown here, O=C([N-]c1c[n+](Cc2ccccn2)no1)Nc1cc(N2CC(c3ccccc3)CC2=O)cc(C(F)(F)F)c1 (stereo not drawn) [Example 122] , give the reported EC50.
Completion: 1 to 20 µM

Continuing:
Prompt: For the compound shown here, COC(=O)c1ccc(C[n+]2cc([N-]C(=O)Nc3cc(NC(=O)Cc4ccccc4)cc(C(F)(F)F)c3)on2)nc1 [Example 113] , give the reported EC50.
Completion: 1 to 20 µM

Prompt: For the compound shown here, Cc1cc(NC(=O)Cc2ccccc2)cc(NC(=O)[N-]c2c[n+](Cc3ccccn3)no2)c1 [Example 57] , give the reported EC50.
Completion: > 20 µM

Prompt: For the compound shown here, O=C(Cc1ccccc1)Nc1cc(NC(=O)[N-]c2c[n+](Cc3ccc(Br)cn3)no2)cc(C(F)(F)F)c1 [Example 12] , give the reported EC50.
Completion: 0.1 to 1 µM

All values here come from patent EP4563146A1.
